Source: patent US20220144957A1

Reported Kd values for the following binders.
# EXPERIMENTAL_TARGET: T1, Human IFNAR1 SD1-SD4 (human, UniProt P17181 28-436, limits assumed)
# T1 construct: domain: SD1-SD4; Antigen injected in the Biacore assay
# T1 sequence (looked up): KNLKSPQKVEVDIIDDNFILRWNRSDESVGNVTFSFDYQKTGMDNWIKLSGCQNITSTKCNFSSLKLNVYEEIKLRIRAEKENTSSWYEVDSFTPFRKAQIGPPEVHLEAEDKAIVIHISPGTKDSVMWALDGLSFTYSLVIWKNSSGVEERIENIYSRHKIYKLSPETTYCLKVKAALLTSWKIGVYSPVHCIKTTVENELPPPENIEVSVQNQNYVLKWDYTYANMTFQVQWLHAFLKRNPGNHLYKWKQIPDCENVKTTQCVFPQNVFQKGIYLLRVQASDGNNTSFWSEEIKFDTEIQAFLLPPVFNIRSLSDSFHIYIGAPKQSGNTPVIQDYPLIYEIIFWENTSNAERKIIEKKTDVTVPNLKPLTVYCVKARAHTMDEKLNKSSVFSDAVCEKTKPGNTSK
# PROTOCOL_DETAILS: SPR (Biacore 8K), antibody captured on anti-human IgG Fc, antigen injected

| BINDER | UNIT | Kd |
| --- | --- | --- |
| Hu4-13 (antibody, V domains shown, Humanized 7G4 variant) VH: QVQLVQSGAEVKKPGASVKVSCKASGYTFTSYWMNWVRQAPGQGLEWMGKIDPSDSETHFNQKFRDRVTMTRDTSTSTVYMELSSLRSEDTAVYYCARGGRISFDYDAALDYWGQGTLVTVSS VL: DIQMTQSPSSLSASVGDRVTITCKSSEVIYNRLAWYQQKPGNAPKLLISGATTLESGVPSRFSGSGSGKDYTLTISSLQPEDFATYYCQQYWNKPFTFGQGTKLEIK | nM | 0.671 |
| Hu4-16 (antibody, V domains shown, Humanized 7G4 variant) VH: QVQLVQSGAEVKKPGASVKVSCKASGYTFTSYWMNWVRQRPGQGLEWIGKIDPSDSETHFNQKFRDRVTLTVDKSTSTVYMELSSLRSEDTAVYYCARGGRISFDYDAALDYWGQGTLVTVSS VL: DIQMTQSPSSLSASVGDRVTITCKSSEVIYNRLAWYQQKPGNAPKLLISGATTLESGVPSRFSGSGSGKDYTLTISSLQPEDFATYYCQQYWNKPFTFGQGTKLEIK | nM | 0.466 |
| Hu4-6 (antibody, V domains shown, Humanized 7G4 variant) VH: QVQLVQSGAEVKKPGASVKVSCKASGYTFTSYWMNWVRQAPGQGLEWMGKIDPSDSETHFNQKFRDRVTLTVDKSTSTVYMELSSLRSEDTAVYYCARGGRISFDYDAALDYWGQGTLVTVSS VL: DIQMTQSPSSLSASVGDRVTITCKSSEVIYNRLAWYQQKPGKAPKLLIYGATTLESGVPSRFSGSGSGKDYTLTISSLQPEDFATYYCQQYWNKPFTFGQGTKLEIK | nM | 0.633 |
| Hu4-14 (antibody, V domains shown, Humanized 7G4 variant) VH: QVQLVQSGAEVKKPGASVKVSCKASGYTFTSYWMNWVRQAPGQGLEWMGKIDPSDSETHFNQKFRDRVTLTVDKSTSTVYMELSSLRSEDTAVYYCARGGRISFDYDAALDYWGQGTLVTVSS VL: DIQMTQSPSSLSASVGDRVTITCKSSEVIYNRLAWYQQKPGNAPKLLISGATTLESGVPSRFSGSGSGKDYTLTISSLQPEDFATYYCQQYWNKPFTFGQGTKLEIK | nM | 0.461 |
